System: Staphylococcus aureus
Assay: Antibacterial activity against methicillin resistant Staphylococcus aureus clinical isolate assessed as inhibition of bacterial growth incubated for 24 hrs
Assay type: functional
MEASUREMENT LABEL: MIC

N#CCc1cc2c(cc1F)c(=O)c(C(=O)O)cn2CCN1CCOCC1 :: 8 µg/mL

Give me MIC for each of these molecules, listed below.
1. N#CCc1cc2c(cc1F)c(=O)c(C(=O)O)cn2Cc1ccccn1
2. CC(C)=CCn1cc(C(=O)O)c(=O)c2cc(F)c(CC#N)cc21
3. C[C@H]1COc2c(CC(=O)O)c(F)cc3c(=O)c(C(=O)O)cn1c23
4. N#CCc1cc2c(cc1F)c(=O)c(C(=O)O)cn2Cc1ccc([N+](=O)[O-])cc1
5. CCCCCCn1cc(C(=O)O)c(=O)c2cc(F)c(CC#N)cc21
6. Cn1cc(C(=O)O)c(=O)c2cc(F)c(CC#N)cc21
7. CCCCCCCCn1cc(C(=O)O)c(=O)c2cc(F)c(CC#N)cc21
8. N#CCc1cc2c(cc1F)c(=O)c(C(=O)O)cn2Cc1ccccc1

1. 32 µg/mL
2. 1 µg/mL
3. 1 µg/mL
4. 128 µg/mL
5. 256 µg/mL
6. 2 µg/mL
7. 256 µg/mL
8. 8 µg/mL

src = ChEMBL document CHEMBL5506059
